Measured values drawn from paper PMC12416549 for this set.

So I've got a bunch of binders here, and I need their apparent Kd (screen) values.
Target: T1, TNFR1 (Homo sapiens, UniProt P19438)
T1 chain: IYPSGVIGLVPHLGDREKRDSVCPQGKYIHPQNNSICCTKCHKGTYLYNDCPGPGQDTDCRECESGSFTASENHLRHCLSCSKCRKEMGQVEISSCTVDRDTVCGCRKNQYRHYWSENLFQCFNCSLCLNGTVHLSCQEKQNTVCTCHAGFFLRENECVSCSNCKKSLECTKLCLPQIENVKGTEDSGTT
Experiment: yeast display SC50
Quick reminder: number only, in nM, skip the unit.

# binder E92I (designed binder) SMEEEVEKAAKEYEKKKKEAIEKHLEKLKAKDKEAAERFLKELEEAAKEYAKDEAKTMSEEEAKRRAKKYKEKVLLSELSEEEQKEIKEAEIKLVRTILKYVEEAAK ; its apparent Kd (screen) = 12.5

Kindly note the recorded apparent Kd (screen) for Y70D (designed binder) SMEEEVEKAAKEYEKKKKEAIEKHLEKLKAKDKEAAERFLKELEEAAKEYAKDEAKTMSEEEAKRRAKKDKEKVLLSELSEEEQKEIKEAEEKLVRTILKYVEEAAK , which is 5.84

The measured apparent Kd (screen) associated with E83L (designed binder) SMEEEVEKAAKEYEKKKKEAIEKHLEKLKAKDKEAAERFLKELEEAAKEYAKDEAKTMSEEEAKRRAKKYKEKVLLSELSEELQKEIKEAEEKLVRTILKYVEEAAK reads 1.27

Value of measured apparent Kd (screen) for the entry E103Y (designed binder) SMEEEVEKAAKEYEKKKKEAIEKHLEKLKAKDKEAAERFLKELEEAAKEYAKDEAKTMSEEEAKRRAKKYKEKVLLSELSEEEQKEIKEAEEKLVRTILKYVYEAAK : 1.86

Data point: E44Y (designed binder) SMEEEVEKAAKEYEKKKKEAIEKHLEKLKAKDKEAAERFLKELYEAAKEYAKDEAKTMSEEEAKRRAKKYKEKVLLSELSEEEQKEIKEAEEKLVRTILKYVEEAAK ; apparent Kd (screen) = 1.54

GET /value?item= A30G (designed binder) SMEEEVEKAAKEYEKKKKEAIEKHLEKLKGKDKEAAERFLKELEEAAKEYAKDEAKTMSEEEAKRRAKKYKEKVLLSELSEEEQKEIKEAEEKLVRTILKYVEEAAK &field=apparent Kd (screen) returns 0.956

The reported value for K33C (designed binder) SMEEEVEKAAKEYEKKKKEAIEKHLEKLKAKDCEAAERFLKELEEAAKEYAKDEAKTMSEEEAKRRAKKYKEKVLLSELSEEEQKEIKEAEEKLVRTILKYVEEAAK in terms of apparent Kd (screen) is 0.653

The binder listed as Y70S (designed binder) SMEEEVEKAAKEYEKKKKEAIEKHLEKLKAKDKEAAERFLKELEEAAKEYAKDEAKTMSEEEAKRRAKKSKEKVLLSELSEEEQKEIKEAEEKLVRTILKYVEEAAK has a reported apparent Kd (screen) of 4.83
